# Test system: CCRF-CEM
# assay-remarks: NCI tumour cell line growth inhibition, 48 h
Active and inactive are the calls of the source. Rule as the data show it: active = GI50 up to about 1.1 µM and inactive = higher.
Give your call using only these classes: true (1) for active, false (0) for inactive

The examples below pair each entry with its known result.
molecule	class-assignment
Cn1nc2ccc3nccc(NCCNCCO)c3c2n1	false (0)
OC1[C@H]([C@H]2CCCC[C@@H]2O)CCC[C@@H]1[C@@H]1CCCC[C@H]1O (stereo partly drawn)	false (0)
C[C@@H]1CC[C@]2(C(=O)O)CC[C@]3(C)C(=CC[C@@H]4[C@@]5(C)CC[C@H](O)C(C)(C)[C@@H]5CC[C@]43C)[C@@H]2[C@]1(C)O	false (0)
CC(=O)N1CCC2(C=Nc3ccccc32)CC1	false (0)
CC1=C(C)C(=O)C(C2=C(C3=CC(=O)C(C)=C(C)C3=O)C(=O)C(C)=C(C)C2=O)=CC1=O	false (0)
Cc1ccc(NC(=S)C#N)cc1Cl	false (0)
CCN(C(=S)N[C@@H](Cc1ccccc1)C(=O)N[C@@H](CC(C)C)C(=O)OC)c1ccccc1	false (0)
O=C(CSCC(=O)N/N=C/c1cccc(OCc2ccccc2)c1)N/N=C/c1cccc(OCc2ccccc2)c1	false (0)
N#CC(Cl)CS(=O)(=O)c1ccccc1 (stereo not drawn)	true (1)
COc1cc(-c2cc(=O)c3ccccc3o2)ccc1N	false (0)

input: Query: recorded result category for CC(=O)N1C(=O)C(=O)c2cc(Cl)ccc21 in this test
output: false (0)

input: Query: recorded result category for Cc1ccc(/C=C/C(=N/NC(=O)N/N=C(/C=C/c2ccc(C)cc2)C(C)C)C(C)C)cc1 in this test
output: false (0)

input: Query: recorded result category for N#CC(C(=O)C(=O)Nc1ccccc1)c1ccccc1 (stereo not drawn) in this test
output: false (0)

input: Query: recorded result category for COc1ccc2c(c1)c1c(n2CCN(C)C)-c2cccc(OC)c2CC1 in this test
output: false (0)

input: Query: recorded result category for OCCNCO in this test
output: false (0)

input: Query: recorded result category for COC(=O)C(=O)C(C(=O)C(=O)Nc1ccc([N+](=O)[O-])cc1)c1nc2ccccc2nc1O (stereo not drawn) in this test
output: false (0)

input: Query: recorded result category for C=C1C(=O)OC2CC(C)C(/C=C/C(C)=O)=CCC12 (stereo not drawn) in this test
output: false (0)

input: Query: recorded result category for COc1ccc(C2=C(OC(=O)N(C)C)c3cccn3-c3cc(C(F)(F)F)ccc3S2)cc1 in this test
output: false (0)

----------
# Test system: OVCAR-8
# assay-remarks: NCI tumour cell line growth inhibition, 48 h
Activity calls are given as the source filed them. Rule as the data show it: active = GI50 up to about 1.1 µM and inactive = higher.
readout-kind: GI50

input: // fetch GI50 given entry Cc1c(C(=O)C/C(=N/NC(=O)C[n+]2ccccc2)C(=O)Nc2ccccc2)[n+]([O-])c2ccccc2[n+]1[O-]
output: > 100 µM (inactive)

input: // fetch GI50 given entry COc1cc2c(cc1OC)C(=O)N(c1ccc(OCCN3CCCC3)cc1)C2=O
output: > 100 µM (inactive)

----------
# System: SK-OV-3
# assay-remarks: NCI tumour cell line growth inhibition, 48 h
Calls of active or inactive are those of the source. No stated cut-off is given here; in the data, active = GI50 up to about 1.1 µM and inactive = higher.
readout-kind: GI50

A selection of reference data follows.
compound	system	GI50
CCCCCCCCCCCCCCCCCC(=O)Nc1ccn(C2CCC(COP(=O)(O)O)O2)c(=O)n1 (stereo not given)	SK-OV-3	> 100 µM (inactive)
CC1CCC2(NC1)OC1CC3[C@@H]4CC=C5C=CCC[C@]5(C)C4CC[C@]3(C)C1C2C (stereo not given in full)	SK-OV-3	25.8 µM (inactive)
CCOC(=O)C(C(=O)OCC)C1C=CCC2c3ccccc3COCC21 (stereo not given)	SK-OV-3	85.5 µM (inactive)
COc1ccc(-c2oc(/C=N/c3ccccc3)c([N+](=O)[O-])c2-c2ccc(OC)c(OC)c2)cc1OC	SK-OV-3	> 100 µM (inactive)
CCSc1nnc(Sc2c3ccccc3nc3ccccc23)s1	SK-OV-3	> 78 µM (inactive)

Field: next compound
input: // fetch GI50 given entry Brc1cc2nn(-c3ccccc3)nc2c2nonc12
output: > 100 µM (inactive)

Every entry's value here was drawn from ChEMBL document CHEMBL1201862.
